Ref: patent US20130053541A1

- assay-system: native human ESRRG protein (Homo sapiens)
- Sequence (P62508 1-458): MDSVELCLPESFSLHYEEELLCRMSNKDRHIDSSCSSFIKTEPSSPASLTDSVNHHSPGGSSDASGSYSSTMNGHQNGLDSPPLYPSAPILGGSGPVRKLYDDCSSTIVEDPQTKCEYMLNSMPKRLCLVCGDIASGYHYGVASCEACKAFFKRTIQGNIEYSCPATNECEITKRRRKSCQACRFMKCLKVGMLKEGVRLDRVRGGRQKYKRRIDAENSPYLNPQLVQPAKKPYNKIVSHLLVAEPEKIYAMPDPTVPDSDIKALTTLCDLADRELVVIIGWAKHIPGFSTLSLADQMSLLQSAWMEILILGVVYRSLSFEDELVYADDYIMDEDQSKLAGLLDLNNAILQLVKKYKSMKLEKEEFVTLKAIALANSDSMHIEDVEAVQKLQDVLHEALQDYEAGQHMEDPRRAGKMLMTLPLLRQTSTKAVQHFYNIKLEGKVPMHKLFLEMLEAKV
- assay-name: peptide microarray screening for ESRRG binding (Iteration 1 and 2)
- condition-description: Iteration 2 iterative screen; fluorescence intensity units

[
  {
    "primary-sequence": "ALNFSLNW",
    "Sample A (Bkgd) Signal": 152.44
  },
  {
    "primary-sequence": "AFNMYLDE",
    "Sample A (Bkgd) Signal": 115.25
  },
  {
    "primary-sequence": "NLLLKHPD",
    "Sample A (Bkgd) Signal": 216.15
  },
  {
    "primary-sequence": "WRSYPRRA",
    "Sample A (Bkgd) Signal": 619.96
  },
  {
    "primary-sequence": "PWKLKQDP",
    "Sample A (Bkgd) Signal": 197.52
  },
  {
    "primary-sequence": "PDSYPRWG",
    "Sample A (Bkgd) Signal": 288.88
  },
  {
    "primary-sequence": "FFKGHFKF",
    "Sample A (Bkgd) Signal": 543.19
  }
]
